What percent inhibition of TTC39B mRNA was measured for each of the following?
# Tested on: murine TTC39B mRNA
# assay_method_text: Dose-dependent antisense inhibition of murine TTC39B in mouse primary hepatocytes (Example 3)
# Assay type: cell-based
# conditions_used: 50.0 nM, cytofectin, ~16 h
Oligonucleotides are written 5' to 3', each unit as a sugar letter and its base; * is a phosphorothioate linkage, no mark a phosphodiester; rarer units and linkages stand in square brackets, end groups in braces. Plain capitals give the bases only. e = 2'-O-(2-methoxyethyl) (MOE); [5mC] = 5-methylcytosine; d = 2'-deoxy (DNA)
Please answer in the form of a number followed by its unit of measurement.

Would you mind telling me what percent inhibition of TTC39B mRNA value was observed for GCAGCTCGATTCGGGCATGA (antisense eG*e[5mC]*eA*eG*e[5mC]*dT*d[5mC]*dG*dA*dT*dT*d[5mC]*dG*dG*dG*e[5mC]*eA*eT*eG*eA) [ISIS 447118] ? 66%

Would you mind telling me what percent inhibition of TTC39B mRNA value was observed for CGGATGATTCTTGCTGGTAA (antisense e[5mC]*eG*eG*eA*eT*dG*dA*dT*dT*d[5mC]*dT*dT*dG*d[5mC]*dT*eG*eG*eT*eA*eA) [ISIS 447114] ? 71%

Would you mind telling me what percent inhibition of TTC39B mRNA value was observed for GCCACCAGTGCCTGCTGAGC (antisense eG*e[5mC]*e[5mC]*eA*e[5mC]*d[5mC]*dA*dG*dT*dG*d[5mC]*d[5mC]*dT*dG*d[5mC]*eT*eG*eA*eG*e[5mC]) [ISIS 447143] ? 72%

Would you mind telling me what percent inhibition of TTC39B mRNA value was observed for TGTCAGTGACAGTGGCAGCT (antisense eT*eG*eT*e[5mC]*eA*dG*dT*dG*dA*d[5mC]*dA*dG*dT*dG*dG*e[5mC]*eA*eG*e[5mC]*eT) [ISIS 447159] ? 62%

###

What triglyceride levels was measured for each of the following?
# assay_method_text: Plasma cholesterol and triglycerides in C57BL/6 mice (Olympus AU400e)
# Type: in vivo, mouse
# conditions_used: Week 3, 50 mg/kg/week
Oligonucleotides are written 5' to 3', each unit as a sugar letter and its base; * is a phosphorothioate linkage, no mark a phosphodiester; rarer units and linkages stand in square brackets, end groups in braces. Plain capitals give the bases only. e = 2'-O-(2-methoxyethyl) (MOE); [5mC] = 5-methylcytosine; d = 2'-deoxy (DNA)
Just the number please, in mg/dL, no unit attached.

Would you mind telling me what triglyceride levels value was observed for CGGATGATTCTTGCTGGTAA (antisense e[5mC]*eG*eG*eA*eT*dG*dA*dT*dT*d[5mC]*dT*dT*dG*d[5mC]*dT*eG*eG*eT*eA*eA) [ISIS 447114] ? 66

Would you mind telling me what triglyceride levels value was observed for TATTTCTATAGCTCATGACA (antisense eT*eA*eT*eT*eT*d[5mC]*dT*dA*dT*dA*dG*d[5mC]*dT*d[5mC]*dA*eT*eG*eA*e[5mC]*eA) [ISIS 447144] ? 70

Would you mind telling me what triglyceride levels value was observed for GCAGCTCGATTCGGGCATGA (antisense eG*e[5mC]*eA*eG*e[5mC]*dT*d[5mC]*dG*dA*dT*dT*d[5mC]*dG*dG*dG*e[5mC]*eA*eT*eG*eA) [ISIS 447118] ? 69

Would you mind telling me what triglyceride levels value was observed for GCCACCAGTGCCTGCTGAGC (antisense eG*e[5mC]*e[5mC]*eA*e[5mC]*d[5mC]*dA*dG*dT*dG*d[5mC]*d[5mC]*dT*dG*d[5mC]*eT*eG*eA*eG*e[5mC]) [ISIS 447143] ? 92
